test system: UO-31; assay: NCI tumour cell line growth inhibition, 48 h
Activity calls are given as the source filed them. Rule as the data show it: active = GI50 up to about 1.1 µM and inactive = higher.
assay readout: GI50

molecule: Cc1ccc(NC(=O)CCC(=O)C2Cc3ccccc3C2=O)cc1C (stereo unspecified)
assay readout: GI50
test value: > 100 µM (inactive)
//
molecule: [N-]=[N+]=CC(=O)c1ccccc1C#CCCc1ccccc1
assay readout: GI50
test value: 22.7 µM (inactive)
//
molecule: CCOC(=O)/C=C/c1cccc(F)c1
assay readout: GI50
test value: > 100 µM (inactive)
//
molecule: CC(C)=CCC/C(C)=C/CC/C(C)=C/C1CCC(=O)C1(C)C (stereo unspecified)
assay readout: GI50
test value: 17 µM (inactive)
//
molecule: C=C1C(=O)C23CC1C[C@H](OC(C)=O)[C@H]2C1(C)C(OC(C)=O)C[C@H](O)C(C)(C)[C@H]1C(=O)[C@@H]3OC(C)=O (stereo partly specified)
assay readout: GI50
test value: 4.93 µM (inactive)
//
molecule: CN1CCC(n2[nH]c(-c3ccccc3)c(Cc3ccccc3)c2=O)CC1
assay readout: GI50
test value: 88.9 µM (inactive)
//
molecule: COc1ccc(-c2[nH]c3c4c(nc5c(c24)C(=O)CC(C)(C)C5)CC(C)(C)C3)cc1
assay readout: GI50
test value: 61.1 µM (inactive)
//
molecule: COc1ccc2c(c1)/C(=C/CCN(C)C)c1ccccc1S2
assay readout: GI50
test value: 27 µM (inactive)
//
molecule: CC(=O)N1CCC(=O)/C(=C/c2ccccc2)C1
assay readout: GI50
test value: > 100 µM (inactive)
//
molecule: CC(=O)C1C(=O)C(=O)N(c2ccccc2C(C)C)C1=O (stereo unspecified)
assay readout: GI50
test value: > 100 µM (inactive)
//
molecule: CCOC(=O)/C([O-])=C(\C(=O)OCC)[n+]1c(C)n(C)c2ccccc21
assay readout: GI50
test value: > 100 µM (inactive)

---

system: A498; experiment: NCI tumour cell line growth inhibition, 48 h
Active and inactive are the calls of the source. No stated cut-off is given here; in the data, active = GI50 up to about 1.1 µM and inactive = higher.

compound: [N-]=[N+]=CC(=O)c1ccccc1C#CCCc1ccccc1
tgt: A498
GI50: 28.4 µM (inactive)
//
compound: CN(C(=O)Cc1ccccc1)n1cnn(CC(=O)OC(C)(C)C)c1=S
tgt: A498
GI50: > 10 µM (inactive)
//
compound: CC(=O)N1CCC(=O)/C(=C/c2ccccc2)C1
tgt: A498
GI50: 56.5 µM (inactive)
//
compound: Cc1cc(Cl)ccc1NC(=O)C(=O)C(C(=O)c1ccccc1)C1OC(=O)c2ccccc21 (configuration not stated)
tgt: A498
GI50: > 100 µM (inactive)
//
compound: CCOC(=O)CCCO
tgt: A498
GI50: > 100 µM (inactive)
//
compound: N=c1c2sc3nc4ccccc4n3c2ncn1Cc1ccccc1
tgt: A498
GI50: > 100 µM (inactive)
//
compound: CC(C)Oc1c(C2(c3ccccc3O)SCCCS2)c(=O)c1=O
tgt: A498
GI50: 62.8 µM (inactive)
//
compound: O=C1CCCCCCCCCCC1CN1CCCC1 (configuration not stated)
tgt: A498
GI50: 19.4 µM (inactive)
//
compound: O=C(NCC1Nc2ccncc2S(=O)(=O)N1)c1ccc(Br)cc1 (configuration not stated)
tgt: A498
GI50: > 100 µM (inactive)
//
compound: COC(=O)c1c(C)ccc2c(O)c3c(cc12)C(=O)c1c2c(cc(O)c1C3=O)C1(C)OC(C)(O2)C(O)C(N(C)C)C1O (configuration not stated)
tgt: A498
GI50: 1.57 µM (inactive)
//
compound: CS(=O)(=O)OCC1=C(COS(C)(=O)=O)C(=O)c2c(O)ccc(O)c2C1=O
tgt: A498
GI50: > 100 µM (inactive)
//
compound: O=C(NNc1nc(-c2ccccc2)cs1)C(F)(F)F
tgt: A498
GI50: 37.1 µM (inactive)
//
compound: N=C(Cc1ccccc1)NCC(=O)O
tgt: A498
GI50: > 100 µM (inactive)
//
compound: O=C(N/N=C/c1ccc(Cl)cc1)c1c(Cl)c(Cl)c(Cl)c(Cl)c1-c1nc2ccccc2[nH]1
tgt: A498
GI50: 98.2 µM (inactive)
//
compound: Cn1c2ccccc2c2c3c(c4c5ccccc5n(C)c4c21)C(=O)N(Cc1ccccc1)C3=O
tgt: A498
GI50: 79.1 µM (inactive)
//
compound: CCC(=O)NCCc1c[nH]c2ccc(OC)cc12
tgt: A498
GI50: > 100 µM (inactive)
//
compound: O=C1CCC(=O)N1n1c(Cc2ccccc2)n[nH]c1=O
tgt: A498
GI50: > 100 µM (inactive)
//
compound: CC1(C)CC2(C)CC1CC2(O)c1ccccc1 (configuration not stated)
tgt: A498
GI50: > 100 µM (inactive)
//
compound: O=C(c1ccc(O)cc1)C1c2c3c(cc(O)c2C(c2ccc(O)cc2)C1c1cc(O)cc(O)c1)OC(c1ccc(O)cc1)C3c1cc2c(cc1O)OC(c1ccc(O)cc1)C2c1cc(O)cc(O)c1 (configuration not stated)
tgt: A498
GI50: > 12.5 µM (inactive)
//
compound: O=C1C2=C(c3ccccc31)C(c1ccc(Cl)cc1)NC(S)=N2 (configuration not stated)
tgt: A498
GI50: 79.1 µM (inactive)
//
compound: Cc1nc(C)c(N2CCN(C#N)CC2)c(O)n1
tgt: A498
GI50: > 100 µM (inactive)
//
compound: C=C1C(=O)OC2CC(C)C(C(O)CC(C)O)=CCC12 (configuration not stated)
tgt: A498
GI50: 16.9 µM (inactive)
